tgt: GSPT1 protein (Homo sapiens, UniProt P15170+Q96SW2)
Construct: Whole cell lysates were prepared; endogenous in cells; host or cells: KG-1 cells
Sequence (P15170 whole entry): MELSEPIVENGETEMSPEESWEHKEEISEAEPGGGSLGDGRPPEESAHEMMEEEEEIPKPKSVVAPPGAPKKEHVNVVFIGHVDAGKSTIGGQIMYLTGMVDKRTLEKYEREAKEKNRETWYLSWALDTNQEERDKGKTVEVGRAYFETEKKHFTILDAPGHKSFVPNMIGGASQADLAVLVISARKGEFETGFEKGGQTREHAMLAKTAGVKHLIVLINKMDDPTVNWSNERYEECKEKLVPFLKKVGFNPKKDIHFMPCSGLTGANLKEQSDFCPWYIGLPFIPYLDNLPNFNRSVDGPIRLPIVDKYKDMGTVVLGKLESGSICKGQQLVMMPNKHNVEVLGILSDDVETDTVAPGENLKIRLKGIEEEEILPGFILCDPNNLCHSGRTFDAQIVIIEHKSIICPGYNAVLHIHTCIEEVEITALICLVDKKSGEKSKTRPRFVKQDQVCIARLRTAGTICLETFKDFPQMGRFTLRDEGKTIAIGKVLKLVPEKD
Sequence (Q96SW2 whole entry): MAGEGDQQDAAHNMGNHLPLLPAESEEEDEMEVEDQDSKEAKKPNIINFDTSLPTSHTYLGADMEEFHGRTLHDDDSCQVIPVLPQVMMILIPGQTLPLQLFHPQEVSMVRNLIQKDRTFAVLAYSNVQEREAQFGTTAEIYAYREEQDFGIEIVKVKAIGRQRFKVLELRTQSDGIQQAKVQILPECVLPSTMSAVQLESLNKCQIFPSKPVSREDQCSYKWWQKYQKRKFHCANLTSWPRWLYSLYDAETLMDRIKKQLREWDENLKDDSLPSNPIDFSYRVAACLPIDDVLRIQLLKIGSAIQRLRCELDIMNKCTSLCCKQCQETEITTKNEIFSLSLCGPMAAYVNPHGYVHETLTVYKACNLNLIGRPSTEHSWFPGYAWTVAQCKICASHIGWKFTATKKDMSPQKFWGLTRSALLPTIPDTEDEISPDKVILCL
Sequence (Q16531 whole entry partner): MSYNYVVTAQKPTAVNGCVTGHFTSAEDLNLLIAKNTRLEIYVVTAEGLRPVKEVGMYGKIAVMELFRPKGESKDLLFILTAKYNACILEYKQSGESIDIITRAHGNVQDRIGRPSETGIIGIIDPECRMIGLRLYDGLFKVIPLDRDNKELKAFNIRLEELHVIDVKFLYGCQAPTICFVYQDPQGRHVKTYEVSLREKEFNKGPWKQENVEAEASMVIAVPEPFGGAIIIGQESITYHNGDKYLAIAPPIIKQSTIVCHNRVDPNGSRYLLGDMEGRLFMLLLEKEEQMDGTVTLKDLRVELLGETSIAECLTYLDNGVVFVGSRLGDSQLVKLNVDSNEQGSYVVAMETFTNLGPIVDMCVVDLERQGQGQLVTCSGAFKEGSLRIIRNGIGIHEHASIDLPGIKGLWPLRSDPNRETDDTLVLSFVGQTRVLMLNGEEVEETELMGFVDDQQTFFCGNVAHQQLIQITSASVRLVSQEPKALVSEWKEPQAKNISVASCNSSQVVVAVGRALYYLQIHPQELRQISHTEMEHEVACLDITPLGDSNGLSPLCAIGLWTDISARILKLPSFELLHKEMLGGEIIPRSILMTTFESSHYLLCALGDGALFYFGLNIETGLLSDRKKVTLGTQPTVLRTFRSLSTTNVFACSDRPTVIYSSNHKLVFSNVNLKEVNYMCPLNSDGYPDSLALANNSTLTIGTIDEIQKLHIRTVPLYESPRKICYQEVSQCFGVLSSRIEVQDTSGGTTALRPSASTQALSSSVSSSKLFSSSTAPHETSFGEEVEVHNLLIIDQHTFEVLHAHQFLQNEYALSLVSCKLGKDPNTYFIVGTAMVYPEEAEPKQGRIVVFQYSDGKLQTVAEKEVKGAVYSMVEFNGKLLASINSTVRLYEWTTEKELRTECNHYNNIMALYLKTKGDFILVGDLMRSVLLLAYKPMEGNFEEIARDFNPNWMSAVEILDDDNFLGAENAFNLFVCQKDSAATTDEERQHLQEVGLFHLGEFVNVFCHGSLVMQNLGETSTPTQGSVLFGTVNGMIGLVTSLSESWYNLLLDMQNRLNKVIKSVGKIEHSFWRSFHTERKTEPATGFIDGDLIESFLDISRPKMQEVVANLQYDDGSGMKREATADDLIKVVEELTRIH
protocol.summary: Degradation of GSPT1 in KG-1 cells (Western blot)
Assay type: cell-based
run.conditions: compound concentration 200 nM, 4 h incubation
Quick reference: inhibition at 0.2 µM of the listed items.

compound	val
O=C1CCC(n2ncc3cc(CNC(=O)C4CNc5ccccc5C4)ccc3c2=O)C(=O)N1 (stereo not drawn)	≥ 70%
O=C1CCC(n2ncc3cc(CNC(=O)C4=Cc5cc(Cl)ccc5OC4)ccc3c2=O)C(=O)N1 (stereo not drawn)	30 to 70%
O=C1CCC(n2ncc3cc(CNC(=O)C4=Cc5cc(Br)ccc5OC4)ccc3c2=O)C(=O)N1 (stereo not drawn)	30 to 70%
O=C1CCC(n2ncc3cc(CNC(=O)C4COc5ccc(F)cc5C4)ccc3c2=O)C(=O)N1 (stereo not drawn)	30 to 70%
O=C1CCC(n2ncc3cc(NC(=O)C4=Cc5cc(F)ccc5OC4)ccc3c2=O)C(=O)N1 (stereo not drawn)	< 30%
O=C1CCC(n2ncc3cc(CNC(=O)C4=Cc5cc(F)cc(F)c5OC4)ccc3c2=O)C(=O)N1 (stereo not drawn)	30 to 70%

// inhibition at 0.2 µM (GSPT1 protein (Homo sapiens, UniProt P15170+Q96SW2)) for Cc1cccc2c1OCC(C(=O)NCc1ccc3c(=O)n(C4CCC(=O)NC4=O)ncc3c1)=C2 (stereo not drawn) = 30 to 70%
